- protocol: Stability test: changes of related substances over 6 months
- Type: physicochemical
- experimental_context: 6 months
In this section we review reported Related substances values for a set of molecules.
The response must be a number in % with no trailing unit.

molecule="C[C@@]12CCCCC[C@@H](Cc3ccc(O)cc31)[C@@H]2N (relative stereo) [Example 3]" numeric_result=0.10
molecule="C[C@@]12CCCCC[C@@H](Cc3ccc(O)cc31)[C@@H]2N (single isomer, unassigned) [Crystal Form I of dezocine, reference compound]" numeric_result=0.28
molecule="C[C@@]12CCCCC[C@@H](Cc3ccc(O)cc31)[C@@H]2N (relative stereo) [Example 5]" numeric_result=0.09
molecule="C[C@@]12CCCCC[C@@H](Cc3ccc(O)cc31)[C@@H]2N (relative stereo) [Example 4]" numeric_result=0.12
molecule="C[C@@]12CCCCC[C@@H](Cc3ccc(O)cc31)[C@@H]2N (relative stereo) [Example 1]" numeric_result=0.13

Field: next molecule
Problem: Request the reported Related substances associated with C[C@@]12CCCCC[C@@H](Cc3ccc(O)cc31)[C@@H]2N (relative stereo) [Example 2]
Result: 0.12
